Reported melting point by item:

structure string: CCOC(=O)C(NC(=O)CNC=O)C(=O)OCC
melting point: 95 to 96 °C
--
structure string: CC(C)c1cccc(C(C)C)c1NC(=O)N(c1ccccc1)c1nnn(CCCCCCCC=O)n1
melting point: 104 to 106 °C
--
structure string: CCCCCCNC(=O)Oc1ccc(Oc2ccccc2)cc1
melting point: 57 to 59 °C
--
structure string: O=c1cc(N2CCOCC2)cc(-c2ccc(Cl)cc2)o1
melting point: 236 to 237 °C
--
structure string: COc1ccc(CN(C)CCCc2ccc(NC(=O)c3cccc4c(=O)c5cccc(OC)c5[nH]c34)cc2)cc1OC
melting point: 180 °C

* * *

Reported melting point by item:
measurement label: melting point

molecule: CCC(=O)Nc1cc(-c2cccnc2)nc(-c2ccco2)n1
measurement label: melting point
measured value: 252 to 253 °C

molecule: COc1ccc(N)nc1C
measurement label: melting point
measured value: 98 to 100 °C

molecule: CC(C)(C)OC(=O)N[C@@H](COS(C)(=O)=O)c1ccccc1
measurement label: melting point
measured value: 108 to 109 °C

molecule: O=C(O)c1cc(-c2ccccc2)cc2c(-c3ccccc3)c(Br)oc12
measurement label: melting point
measured value: 232 to 236 °C

molecule: CCOC(Cc1ccc(OCCN2CCSc3ccccc32)cc1)C(N)=O (stereo unspecified)
measurement label: melting point
measured value: 120 to 122 °C

molecule: CC1(C)OC(=O)Nc2ccc(-c3cc(C(F)(F)F)cc(C(F)(F)F)c3)cc21
measurement label: melting point
measured value: 258 to 260 °C

molecule: Cc1noc(C)c1Cn1cc(NC(=O)c2ccccn2)cn1
measurement label: melting point
measured value: 135 to 137 °C

molecule: CCCCc1nc2cccc(C(=O)O)c2n1Cc1ccc(-c2ccccc2-c2nc(=S)o[nH]2)cc1
measurement label: melting point
measured value: 178 to 180 °C

molecule: CC(=O)Nc1ccc(NC(=O)c2ccc(-c3[nH]nc4c3C(=O)c3c(NC(=O)NN5CCOCC5)cccc3-4)s2)cc1
measurement label: melting point
measured value: 253 to 254 °C

molecule: CCOC(=O)c1ccc(C(=O)c2c(N)sc3c2CCN(C(=O)OCc2ccccc2)C3)cc1
measurement label: melting point
measured value: 195 to 196 °C

molecule: CN(C)C(=O)NNC(=O)c1ccccc1
measurement label: melting point
measured value: 199 to 201 °C

molecule: COC(=O)c1c(C)[nH]c(C)c1C1=CC(=O)c2ncccc2C1=O
measurement label: melting point
measured value: 237 to 241 °C

molecule: Cc1nc(-c2ccc(Cl)cc2)sc1C(N)=O
measurement label: melting point
measured value: 236 to 237 °C

molecule: CC(C)CC1CNCCNCCNCCNCCN1 (stereo unspecified)
measurement label: melting point
measured value: 70 to 76 °C

molecule: CS(=O)(=O)c1ccc(C2=C(c3ccc(F)c(Cl)c3)CCC2)cc1
measurement label: melting point
measured value: 87.5 to 88.5 °C

molecule: CC(C)Cn1c(C(=O)O)c(-c2cccs2)c2cc(OCc3ccccc3)ccc2c1=O
measurement label: melting point
measured value: 171 to 172 °C

molecule: Cc1cc(-c2ccc(-c3ccc(F)cc3)cc2)n[nH]c1=O
measurement label: melting point
measured value: 247 to 248 °C

molecule: Nc1ccccc1-c1nc2ccccc2o1
measurement label: melting point
measured value: 104 to 107 °C

molecule: Cc1ccc(-c2ccc(C(=O)Nc3ccc4nc(CN5CCCCC5)ccc4c3)cc2)cc1
measurement label: melting point
measured value: 198 to 200 °C

molecule: COc1ccc(-c2nc(CO)c[nH]2)cc1
measurement label: melting point
measured value: 171 to 173 °C

molecule: Cc1cc(C2=NN(c3nccs3)[C@H](C)Cc3cc4c(cc32)OCO4)cc(C)c1[N+](=O)[O-]
measurement label: melting point
measured value: 167 °C

Measured values drawn from a melting point compilation (Tetko et al.; mined from patent text by program, amines drawn as free bases though some values may be those of a salt) for this set.
